test: yeast display, Sf9 membrane polyspecificity reagent, FACS + sequencing; frameworks hold sequencing errors
Parameter: polyreactivity (PSR sort gate)

QVQLVESGGGLVQAGGSLRLSCAASGRISKGYAMGWYRQAPGKERELVAAISWRTSSTYYADSVKGRFTISRDNAKNTVYLQMNSLKPEVTAVYYCAAETWLGSWRQVGMDYWGQGTQVTVSS : high polyreactivity
QVQLVESGGGLVQAGGSLRLSCAASGSIFRPYAMGRYRQAPGKERELVAAISWRSGRTYYADSVKGRFTISRDNAKNTVYLQMNSLKPEDTAVYYCAADLASYAYRYDYWGQGTQVTVSS : high polyreactivity

====

test: yeast display, Sf9 membrane polyspecificity reagent, FACS + sequencing; frameworks hold sequencing errors
Parameter: polyreactivity (PSR sort gate)

Reference set, count: 5
QVQLVESGGGLVQAGGSLRLSCAPSGTTFTRNAMGWYREAPGKERELVAAISFSGGSTYYADSVKGRFTISRDNAKNTVYIQMNSLKPEDTAVYYCATKVEYRYYYWGQGTQVTVSS : high polyreactivity
QVQLVESGGGLVQAGGSLRLSCAASGSTFKAYAMGWYRQAPGKERELVAAITKSGGRTYYADSVKGRFTISRDNAKNTVYLQMISLKPEDTAVYYCAAVFRPDSSAYRYYYWGQGTQVTVSS : high polyreactivity
QVQLVESGGGLVQAGGSLRLSCAASGSTFYTYAMGWYRQAPGKERELVAAISGSGGRTYYADSVKGRFTISRDNAKNTVYLQMNSLKPEDTAVYYCAAYSYRKHATGSRDMDYWGQGTQVTVSS : high polyreactivity
QVQLVESGGCLVQAGGSLRLSCYASGIIFAWYAMGWYRQAPGKERQLVAAISYSGCTTYYADSVKWRFTISRDNAKNTVYFKMNSLKPVDTAVYYCAALLHHFFTYDYWGQGTQVTVSS : low polyreactivity
QVQLVESGGGLVQAGGSLRLSCAASVSIFARYAMGWYRQAPGKERELVAAITSGTSTNYADSVKGRFTISRDNAKNSVYLQMNSLKPEDTAVYYCNARHTWHQTYDYCGQGTQVTVSS : low polyreactivity

Hello, I would appreciate it if you could give polyreactivity (PSR sort gate) for each entry below.
1. QVQLVESGGGLVQAGGSLRLSCAASGFTFYSYVMGWYRQAPGKERELVAAIDPSGGRTYYADSVKGRFTISRDYAKNTVYLQMNSLKPVDTAVYYCAVPRVDYWGQGTQVTVSS
2. LVQLEDSGGGLVQGGGSLRLSCAASGRIFSANAMGCYRQATGKERELVASISTGGGRTYYADSVKGRFTISRDNAKNTVYLQMISLKPEDTAVYYCNAILRPFRVRGTYGTYGYDYWGQGTQVTVSS
3. QVQLVESGGGLVQAGGSLRLSCAASGSIFGSYAMGWYRQAPGKERELVASITRVDSTNYADSVKGRFTISRDNAKNTVYLQMNSLKPEDTAVYYCNAGSRTTAGGMDSWGQGTQVTVSS
4. QVQLVESGGGLVQAGGSLRLSCAASGSISNRYAMGWYRQAPGKERELVAAISTGGGTTYYADSVKGRFTISRDNAKNTVYLQMNSLKPEDTAVYYCAADDWRYYRELDYWGQGTQVTVSS
5. QVQLVESGGGLVQAGGSLRLSCAASGITFTKYVMRWYRQAPGKERELVATIRWGASSTHYADSVKGRFTISRDNAKNTVYLQMNSLKPEDTAVYYCNADGWYGAVYWWFYGFDYWGQGTQVTVSS
6. QVQLVESGGGLVQAGGSLRLSCDASGSIFRPNAMGWYRQPPGKERELVAAITWIAGGTYYADSVKGRFTISRDNAKNTVYLQMNSLKPEDTAVYYCAARWYFQTGVGRYYHYDYWGQGTQVTVSS
7. QVQLVESGGGLVQAGGSLRLSCAASGRTIPTYVMGWYRQAPGKERELVASIRSGGRTKYADSVKGRFTISRDNAKNTVYLQMNSLKPEDTAVYYCAADYHGSPEYDYWGQGTQVTVSS
8. QVQLVESGGGLVQAGGSLRLSCAASGLTFAKYAMGWYRQAPGKERELVAAIRSGDDTTYADSVKGRFTISRDNAMNTVYLQMISLKPEDTAVYYCAARPIHYPPYYYWGQGTQVTVSS

Output:
["high polyreactivity", "high polyreactivity", "low polyreactivity", "low polyreactivity", "low polyreactivity", "high polyreactivity", "low polyreactivity", "high polyreactivity"]

For every item below, please supply its polyreactivity (PSR sort gate).
1. QVQLVESGGGLVQAGGSLRLSCAASGYIFSYYAMGWYRQAPGKERELVAAINRSGGRTYYADSVKGRFTISRDNAKNTVYLQMNSLKPEDTAVYYCAADQLSDEYDYWGQGTQVTVSS
2. QVQLEESGGGLVQAGGSLRLSCAASGITFSGNAMGWYRQAPGKERELVATISQSGGRTYYADSVKGRFTISRDNAKNTVYLQMNSLKPEDTAVYYCARRRLRYTDRGYYYWGQGTQVTVSS
3. QVQLVESGGGLVQAGGSLRLSCAASGRIFAWYVMGWYRQAPGKEREFVAAIRWRSGSTHYADSVKGRFTISRDNAKNTVYLQMNSLKPEDTAVYYCARDVHGLLDYWGQGTQVTVSS
4. QDQLVESAGGLVQAGGSLRLSCAASGFTFINNDMGWYRQAPGKERELVAAISDSDGTTYYADSVKGRFTISLDHAKNTVYLQMNSLKPEDTAGYYCAADVVPTWEDEYWRQGTQVTVSS
5. QVQLVESGGGLVQAGGSLRLICDASGRIFPWYTMGWYRQAPGKERELVAAITSGGNKDYADSVKGRFTISRDYAKNTVFLQMNSLKPEDTAVYYCAAGPDPLGEDYWGQGTQVTVSS
6. QVQLVESGGGLVQAGGSLRLSCAASGLSSLRMLWDGRDRRLGKKGSWLPLITSGGDSTNYADSVKGRFTISRDNAKNTVYFQMNSLKPEDTAVYYCAADLDYPYGYLGQGTQVTVSS
7. QDQLVESGGGLVQAGGSLRLSCAASGSTFPLYAMGSYREAPGKERELVADITVSGGSTYYADSVKGRFTISRDNAKNTVYLQMNSLNPEDTAVYYCNADDRSPFPDYWWYPYDYDYGGQGTQVTVSS

Output:
1. high polyreactivity
2. high polyreactivity
3. high polyreactivity
4. low polyreactivity
5. low polyreactivity
6. low polyreactivity
7. low polyreactivity

Entry QVQLVESVGGLVQAGGSLRLSCAASGYIFATNAMGWYRQAPGKERELVAAITRSGGRTYYADSVKGRFTISRDNAKNTVYLQMNSLKPEDTAVYYCAAARPTNIYYYWGQGTQVTVSS , polyreactivity (PSR sort gate) reported as high polyreactivity

All values here come from the nanobody polyreactivity screen of Harvey et al. (2022).
